Reference source: ChEMBL document CHEMBL3396972

Tested on: Human immunodeficiency virus 2
Experimental protocol: Antiviral activity against wild type HIV-2 ROD infected in human MT4 cells assessed as reduction of virus-induced cytopathic effect after 5 days by MTT assay
Assay type: functional, organism-based
Test parameters: Human immunodeficiency virus 2, ISOLATE ROD, MT4, 120 h
Listed next: entries and their corresponding EC50.

Cc1cnc(Nc2ccc(C#N)cc2)nc1OCC(=O)Nc1ccccc1F :: > 331 µM
Cc1cn([C@H]2C[C@H](N=[N+]=[N-])[C@@H](CO)O2)c(=O)[nH]c1=O [ZIDOVUDINE] :: 0.0066 µM
Cc1cc(OCC(=O)Nc2ccc(C#N)cc2F)nc(Nc2ccc(C#N)cc2)n1 :: > 311 µM
N#Cc1ccc(Nc2nccc(OCC(=O)Nc3ccc([N+](=O)[O-])cc3)n2)cc1 :: > 320 µM
Cc1cc(OCC(=O)Nc2ccc(Br)cc2)nc(Nc2ccc(C#N)cc2)n1 :: 0.93 µM

stdin: # value lookup — system Human immunodeficiency virus 2, readout EC50, item Cc1cc(OCC(=O)Nc2ccc(Cl)cc2)nc(Nc2ccc(C#N)cc2)n1
stdout: 2.63 µM

stdin: # value lookup — system Human immunodeficiency virus 2, readout EC50, item Cc1cnc(Nc2ccc(C#N)cc2)nc1OCC(=O)Nc1ccccc1Cl
stdout: > 197 µM
